Experiment: yeast display, Sf9 membrane polyspecificity reagent, FACS + sequencing; frameworks hold sequencing errors

sequence_input: QVQLVESGGGLVQAGGSLRLSCAASGFTFRANGMGWYRQAPGKERELVATITSGGTTNYADSVKGRFTISRDNAKNTVYLQMNSLKPEDTAVYYCAKRFGPAYFRLYDYWGQGTQVTVSS
polyreactivity (PSR sort gate): low polyreactivity

sequence_input: QVQLVESGGGLVQAGGSLRLSCAASGITLDVNAMGWYRQAPGKERELVADITWSDDSTYYADSVKGRFTISRDNAKNTVYLQMNSLKPEDTAVYYCAADVSVSFHPRGYDYWGQGTQVTVSS
polyreactivity (PSR sort gate): low polyreactivity

Measured values drawn from the nanobody polyreactivity screen of Harvey et al. (2022) for this set.
